Tested on: Madurella mycetomatis MM55
assay-procedure: percent growth relative to solvent control; higher = less inhibition, active = 20 or less
protocol-conditions: 100 µM; 7 days
The categories you may choose from are Y = active, N = inactive

Known results for compounds:
CC1COC(Cn2cncn2)(c2ccc(Oc3ccc(Cl)cc3)cc2Cl)O1 (configuration not stated)    Y
Cc1cc(C2=NOC(c3cc(Cl)c(F)c(Cl)c3)(C(F)(F)F)C2)ccc1C(=O)NCc1ccc2c(c1)C(C)(C)OB2O (configuration not stated)    N
CC1(C)OB(O)c2ccc(C3=NOC(c4cc(Cl)c(F)c(Cl)c4)(C(F)(F)F)C3)cc21 (configuration not stated)    Y
CO/C=C(/C(=O)OC)c1ccccc1Oc1cc(Oc2ccccc2C#N)ncn1    Y
Cc1nn(Cc2ccccc2)c(Cl)c1C(=O)NC1CCCCCC1    N

Exam item: Per the records of this test, what outcome belongs to "CCc1nn(C)c(C(=O)NCc2ccc(Oc3ccc(C)cc3)cc2)c1Cl" ?
Marked response: N

Exam item: Check the results log: what was the call for "O=C1O[C@@H](COc2ccon2)CN1c1cc(F)c(C2=CCN(Cc3ccccc3)CC2)c(F)c1" ?
Marked response: N

###

Tested on: Madurella mycetomatis MM55
assay-procedure: IC90; higher = less potent
protocol-conditions: 7 days
measurement-label: IC90
State the result as a value with its unit after it.

CO/C=C(/C(=O)OC)c1ccccc1Oc1cc(Oc2ccccc2C#N)ncn1    20.4 µM
Nc1c2c(nc3sc4c(c13)CCCC4)CCCC2    16.4 µM
CC1(C)OB(O)c2ccc(C3=NOC(c4cc(Cl)c(F)c(Cl)c4)(C(F)(F)F)C3)cc21 (centres undefined)    19.4 µM

We now examine a further compound.
Field IC90 (entry "CO/N=C(\C(=O)OC)c1ccccc1CO/N=C(\C)c1cccc(C(F)(F)F)c1" ) reads 28.1 µM

Where do the numbers come from? From the supplement of paper PMC5940239.
